Listing: GI50 of selected compounds
- Test system: NCI/ADR-RES ovarian
- protocol.notes: NCI tumour cell line growth inhibition, 48 h

# compound, GI50
records = [
    ("COc1ccc(-c2cn(-c3ccccc3)c(-c3ccccc3)n2)cc1OC", "4.01 µM"),
    ("C=C1C(=O)O[C@H]2[C@H]1CC/C(COC(=O)N1CCC[C@H]1C(=O)Nc1ccc(OC)c(C(N)=O)c1O)=C\\CC[C@@]1(C)O[C@@H]21", "61 µM"),
    ("CCOP(=O)(OCC)C(NC(c1ccccc1)c1ccccc1)c1cccc2ccccc12 (configuration not stated)", "9.79 µM"),
    ("COc1c(N2CCN(CN3C(=O)C(=Nc4ccc(S(=O)(=O)Nc5ncccn5)cc4)c4ccccc43)C(C)C2)c(F)cc2c(=O)c(C(=O)O)cn(C3CC3)c12 (configuration not stated)", "23.2 µM"),
    ("CO/N=C(\\C)c1ccc(Nc2cc(-c3ccccc3)nc3c(O)cccc23)cc1", "14.5 µM"),
]

In: Looking for the measured GI50 of COC(=O)CNC(=O)[C@@H](OC)[C@@H]1Cc2cc3cc(OC4CC(OC5CC(O)C(O)C(C)O5)C(O)C(C)O4)c(C)c(O)c3c(O)c2C(=O)[C@H]1OC1CC(OC2CC(OC3CC(C)(O)C(O)C(C)O3)C(O)C(C)O2)C(O)C(C)O1 (some centres not stated) , can you help?
Out: 48.5 µM

In: # GI50 lookup, item Clc1nc(Cl)c2c(ncn2C/C=C\Cn2cnc3c(Cl)nc(Cl)nc32)n1
Out: 2.69 µM

====

- Test system: NCI-H226 lung
- protocol.notes: NCI tumour cell line growth inhibition, 48 h
readout.kind: GI50

# compound, subject.of.test, result
records = [
    ("O=C1C(Cl)=C(Nc2cccc(O)c2)C(=O)N1c1cc(Cl)c(Cl)cc1Cl", "NCI-H226 lung", "14.7 µM"),
    ("O=C1/C(=C/c2ccc(O)cc2)COc2ccc(-c3ccccc3)cc21", "NCI-H226 lung", "16.1 µM"),
]

In: Record lookup: for NCI-H226 lung, what GI50 belongs to CCOP(=O)(OCC)C(NC(c1ccccc1)c1ccccc1)c1cccc2ccccc12 (stereo unspecified) ?
Out: 4.63 µM

In: // fetch NCI-H226 lung GI50 for CC1OC2CC(=O)OC2C2=C1C(=O)c1c(O)c3c(c(O)c1C2=O)C1CC(O)C3(O)C(C)O1 (stereo unspecified)
Out: 0.974 µM

In: GI50 of Fc1ccc2[nH]c3c(NCCCN4CCOCC4)ncnc3c2c1 on NCI-H226 lung?
Out: 63.3 µM

In: # get_value(readout= GI50, system= NCI-H226 lung) for COc1cc(Nc2nc(N[C@H]3CCCC[C@@H]3N)nc3cc[nH]c(=O)c23)cc(OC)c1
Out: 1.88 µM

====

- Tested on: TK-10 renal
- protocol.notes: NCI tumour cell line growth inhibition, 48 h
# binarize TGI: threshold 6 µM inclusive, high side Criterion met, low side Criterion not met

Record excerpt, results attached:
# compound, label.class
data = [
    ("Cc1ccc(N=C2C(=O)C3=C(OC(C)(C)CC3)c3ccccc32)cc1", "Criterion not met"),
    ("Fc1cccc(COc2ccc(Nc3ncnc4cc(-c5ccc[nH]5)sc34)cc2Cl)c1", "Criterion not met"),
    ("Cc1nc2sc(C(=O)Nc3ccccc3)c(N)c2cc1C(=O)/C=C/c1ccccc1", "Criterion met"),
    ("C[C@H](O)C1CC(Cn2nnc3c(N)ncnc32)C1(C)C (stereo not given in full)", "Criterion met"),
    ("CNC(=O)c1[nH]cnc1/N=N/N(C)N", "Criterion met"),
    ("Cn1ccnc1C(=O)/C=C/c1ccc(CC(=O)Nc2ccccc2)cc1", "Criterion met"),
    ("COc1cc(Nc2nc(N[C@H]3CCCC[C@@H]3N)nc3cc[nH]c(=O)c23)cc(OC)c1", "Criterion met"),
    ("COc1ccc(-c2cc(-c3cc(OC)c(OC)c(OC)c3)cc(-c3cc4ccccc4oc3=O)n2)cc1", "Criterion met"),
    ("NC(=O)N1N=C2c3ccccc3SC[C@H]2[C@@H]1c1ccccc1", "Criterion met"),
]

# evaluate next
In: Determine whether measured TGI meets or exceeds 6 µM for O=C(O)c1cc(=O)c2[nH]c3ccccc3c2s1
Out: Criterion met

====

- Test system: 786-0 renal
- protocol.notes: NCI tumour cell line growth inhibition, 48 h
readout.kind: TGI (µM)
Write the value in µM as a bare number.

# compound, readout.kind, display.unit, quantitative.result
measured = [
    ("Clc1ccc(C2NN=C3c4ccccc4OCC32)cc1 (stereo not given)", "TGI", "µM", 29.5),
]

In: Field request: TGI | item: O=[N+]([O-])c1ccc2nc(/C=C(\O)c3ccc(F)cc3)c(/C=C(\O)c3ccc(F)cc3)nc2c1
Out: 39.7

In: Consider the compound shown here: O=C(CCl)N1c2ccccc2Sc2c1ccc1ccccc21 What is its recorded TGI?
Out: 3.27

In: Please report the recorded TGI for CO/N=C(\C)c1ccc(Nc2cc(-c3ccccc3)nc3c(O)cccc23)cc1 .
Out: 35.2

====

- Tested on: SN12C renal
- protocol.notes: NCI tumour cell line growth inhibition, 48 h
readout.kind: GI50

# compound, readout.kind, result
records = [
    ("CC(=O)O[C@@H]1CC2C(C)(C)CCCC2(C)C2=C1C(=O)C(C(C)C)=CC2=O (stereo not given in full)", "GI50", "1280 nM"),
]

In: Item: COc1ccc(-c2cn(-c3ccccc3)c(-c3ccccc3)n2)cc1OC Test system: SN12C renal Read-out: GI50 Value: ?
Out: 5200 nM

In: Look up GI50 with SN12C renal for this compound: C=C1C(=O)O[C@H]2[C@H]1CC/C(COC(=O)N1CCC[C@H]1C(=O)Nc1ccc(OC)c(C(N)=O)c1O)=C\CC[C@@]1(C)O[C@@H]21
Out: 2960 nM

In: Lookup: GI50 / SN12C renal / CC1C(=O)C(C)C(c2ccccc2)N(N=O)C1c1ccccc1 (stereo not given)
Out: > 65200 nM

In: Any idea what GI50 came out for CCOP(=O)(OCC)C(NC(c1ccccc1)c1ccccc1)c1cccc2ccccc12 (stereo not given) on SN12C renal?
Out: 2680 nM

In: Record COc1cc[nH]c1/C=C1\C(=O)Nc2ccc(F)c(I)c21 : what is its GI50 with SN12C renal?
Out: > 25000 nM

====

TGI listing for selected compounds.
- Tested on: NCI/ADR-RES ovarian
- protocol.notes: NCI tumour cell line growth inhibition, 48 h

# compound, subject.of.test, result
data = [
    ("CCOc1cc(NC(C)=O)ccc1C(=O)NN1C(=O)/C(=C/c2cc(OC)c(OC)c(OC)c2)N=C1c1ccccc1", "NCI/ADR-RES ovarian", "> 100 µM"),
]

In: Look up TGI for this compound: CCOC(=O)CCC(NC(=O)c1ccc(N2CCN(c3c(C)nc(N)nc3N)CC2)cc1)C(=O)OCC (centres undefined)
Out: > 100 µM

In: Request the reported TGI associated with COc1ccc(-c2cc(-c3cc(OC)c(OC)c(OC)c3)cc(-c3cc4ccccc4oc3=O)n2)cc1
Out: 31.6 µM

In: Which TGI value is on record for CC1C(=O)C(C)C(c2ccccc2)N(N=O)C1c1ccccc1 (centres undefined) ?
Out: 867 µM

In: Bench note: what TGI did Nc1nc(Cl)cc(Nc2cc(Cl)cc(Cl)c2)n1 show?
Out: 44 µM

In: Which measured TGI value corresponds to COc1c(N2CCN(CN3C(=O)C(=Nc4ccc(S(=O)(=O)Nc5ncccn5)cc4)c4ccccc43)C(C)C2)c(F)cc2c(=O)c(C(=O)O)cn(C3CC3)c12 (centres undefined) ?
Out: > 50 µM

In: Please report the recorded TGI for O=c1[nH]nc(Cc2ccccc2)n1Nc1ccccc1 .
Out: > 100 µM

In: What value of TGI has been reported for the following compound? CC1OC2CC(=O)OC2C2=C1C(=O)c1c(O)c3c(c(O)c1C2=O)C1CC(O)C3(O)C(C)O1 (centres undefined)
Out: 0.917 µM

In: May I ask what TGI has been recorded for CNC(=O)c1[nH]cnc1/N=N/N(C)N ?
Out: > 100 µM

====

- Tested on: A498 renal
- protocol.notes: NCI tumour cell line growth inhibition, 48 h; in the data active = GI50 below about 0.43 µM; inactive = the rest
// one of active, inactive, no free text

Use the examples below as a reference point.
# compound, label.class
rows = [
    ("O=C(CCl)N1c2ccccc2Sc2c1ccc1ccccc21", "inactive"),
    ("CC(CNC(Cc1ccccc1)c1ccccc1)NC(Cc1ccccc1)c1ccccc1 (stereo not given)", "inactive"),
    ("COc1cc(Nc2nc(N[C@H]3CCCC[C@@H]3N)nc3cc[nH]c(=O)c23)cc(OC)c1", "inactive"),
    ("Nc1cc(N)c(N)cc1N", "inactive"),
    ("NC(C(=O)[O-])C(=O)[O-].NC1CCCCC1N.[Pt+4]", "inactive"),
]

In: // outcome(item) with item = COc1ccc2c(c1)OC(N(C(C)=O)C(C)=O)=C(C#N)C2c1ccc(F)cc1 (stereo not given)
Out: inactive

In: Per the records of this test, what outcome belongs to CC(=O)Nc1ccc2c(c1)oc(=O)c1cc(NC(C)=O)ccc12 ?
Out: inactive
